Hello, the source for this data is PubChem BioAssay AID1963856, in case you need it.

Please provide measured viability, T/C for the entries that follow.
test system: LG0567-F671-PDC KRAS tumor spheroid viability; assay: Anticancer human tumor LG0567-F671-PDC patient-derived lung adenocarcinoma cell line growth inhibition [KRAS2]; details: second compound 0.1 µM; first compound 0.1 µM; hits give low values; spheroids with HUVEC and MSC;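 note: drug exposure lasted seven days after spheroids formed for three days; 100% = DMSO vehicle control viability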
Give the quantity in %, number only.

Query: viability, T/C; subject: CC1(C)CCC(CN2CCN(c3ccc(C(=O)NS(=O)(=O)c4ccc(NCC5CCOCC5)c([N+](=O)[O-])c4)c(Oc4cnc5[nH]ccc5c4)c3)CC2)=C(c2ccc(Cl)cc2)C1 + COc1cc2nc(C)nc(NC(C)c3cc(N)cc(C(F)(F)F)c3)c2cc1OC1CCOC1
67.3

For the molecule CC1COCCN1c1cc(-c2ccnn2C)c2ccnc(-c3ccn[nH]3)c2n1 (configuration not stated) + C=CC(=O)N1CCN(c2nc(=O)n(-c3c(C)ccnc3C(C)C)c3nc(-c4c(O)cccc4F)c(F)cc23)C(C)C1 , what viability, T/C is on record?
16
